molecular target: fluorescently labelled recombinant rat PICK1 (DY549-SNAP-PICK1) (rat), Q9EP80; assay: SCMS, dissociation of PICK1 pre-bound to TacDAT C24 sheets by peptide
Sequence (Q9EP80 whole entry): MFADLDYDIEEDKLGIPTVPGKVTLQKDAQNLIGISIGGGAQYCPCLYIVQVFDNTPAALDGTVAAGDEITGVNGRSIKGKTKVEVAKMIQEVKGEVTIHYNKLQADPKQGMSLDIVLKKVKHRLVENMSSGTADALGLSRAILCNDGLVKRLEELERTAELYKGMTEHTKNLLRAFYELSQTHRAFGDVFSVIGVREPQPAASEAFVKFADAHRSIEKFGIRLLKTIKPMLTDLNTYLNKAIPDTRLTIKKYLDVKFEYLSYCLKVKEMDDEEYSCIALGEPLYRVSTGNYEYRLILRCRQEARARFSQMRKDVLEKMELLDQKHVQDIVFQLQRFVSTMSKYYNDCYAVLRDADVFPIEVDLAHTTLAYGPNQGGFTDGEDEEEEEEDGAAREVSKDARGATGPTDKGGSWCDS
readout name: IC50
Please give the number followed by its unit.

The reported IC50 of the binder TAT11-PEG4-(DATC5)2 (modifications not checked) peptide 1: HWLKV peptide 2: YGRKKRRQRRR was 1170 nM

Values compiled from patent US20250215052A1.
